Record form. Attribute: pre-steady-state target cleavage rate. Fill in for each entry.
Tested on: MILI (PIWIL2) piRISC loaded with L1MC piRNA (26 nt);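 further: 1 nM active piRISC with 0.1 nM target library at 33 °C single turnover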
method: pre-steady-state target cleavage rate (min^-1); guide: L1MC piRNA 5'p-UAACUAAAUACUAUGCAAGCUGUAGG; higher = faster piRNA-guided slicing of the target
condition_context: auxiliary factor: none (no GTSF1)
// return a plain number; no unit text

Using known records, supply pre-steady-state target cleavage rate for UCCUGGAUGUCCUUGCAUAGUAUUUGGUUA
0.00707

Using known records, supply pre-steady-state target cleavage rate for UCCUGGAACAGCUUGACAUAGUAUUUAGUUA
0.00586

Using known records, supply pre-steady-state target cleavage rate for UCCUGCGUACAGCUUGCAUAGUAUUUAGUUA
0.0109

Using known records, supply pre-steady-state target cleavage rate for UCCUGGAUGAGCUUGGAUAGUUUUUAGUUA
0.00424

Using known records, supply pre-steady-state target cleavage rate for UCCUGGAUCAGCUUGCAUAGUUAUUAGUUA
0.00466

Using known records, supply pre-steady-state target cleavage rate for UCCUGGUCAGCUUGCAUAGUAUUUAGUUA
0.012

Using known records, supply pre-steady-state target cleavage rate for UCCUGGUACAGCUUGCAAGUAUUUAGUUA
0.00636

Using known records, supply pre-steady-state target cleavage rate for UCCUGCUACAGUCUUGCAUAGUAUUUAGUUA
0.00875

Using known records, supply pre-steady-state target cleavage rate for UCCUGGAUGUGCAUGCUUAGUAUUUAGUUA
0.0103

Using known records, supply pre-steady-state target cleavage rate for UCCUGGUACGAGCUUGCAUAGUAUUUAGUUA
0.0102

Using known records, supply pre-steady-state target cleavage rate for UCCUGCUACAGGUUGCAUUGUAUUUAGUUA
0.0103

Using known records, supply pre-steady-state target cleavage rate for UCCUGCUACAGCUUGUAUAGUAUUUAGUUA
0.00693

Using known records, supply pre-steady-state target cleavage rate for UCCUGGAUGUCGAUGCAUAGUGAUUUAGUUA
0.00429

Using known records, supply pre-steady-state target cleavage rate for UCCUCCUACAGCUUGCAUAGGUAUUUAGUUA
0.00373

Using known records, supply pre-steady-state target cleavage rate for UCCUGGUACAGCUUGCAUAGUAUUUAUGUUA
0.0114

Using known records, supply pre-steady-state target cleavage rate for UCCUGGAUGAGCGUGCAUAGUAUUUAGUUA
0.0113

Using known records, supply pre-steady-state target cleavage rate for UCCUGGAUGUGCUUGCAUAGUAUUUAGUUC [g2:g20:cont:t1C]
0.00589

Using known records, supply pre-steady-state target cleavage rate for UCCUGGAUGAGCGUUGCAUAGUAUUUAGUUA
0.00904

Using known records, supply pre-steady-state target cleavage rate for UCCUCCUACAGCUUGCAUAGUAUUUAAUUA
0.00326

###

Test system: MILI (PIWIL2) piRISC loaded with L1MC piRNA (26 nt);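 further: 1 nM active piRISC with 0.1 nM target library at 33 °C single turnover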
method: pre-steady-state target cleavage rate (min^-1); guide: L1MC piRNA 5'p-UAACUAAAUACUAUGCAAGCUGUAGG; higher = faster piRNA-guided slicing of the target
condition_context: auxiliary factor: none (no GTSF1)
assay_readout: pre-steady-state target cleavage rate

Fetch value of pre-steady-state target cleavage rate on MILI (PIWIL2) piRISC loaded with L1MC piRNA (26 nt) for UCCUGGAUGUCGAACGUUAGUAAUUAGUUA .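 Further: 1 nM active piRISC with 0.1 nM target library at 33 °C single turnover.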
< 0.0001

Fetch value of pre-steady-state target cleavage rate on MILI (PIWIL2) piRISC loaded with L1MC piRNA (26 nt) for UCCUGGAUGAGCUUGCAUAGUAUUUAGGUUA .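 Further: 1 nM active piRISC with 0.1 nM target library at 33 °C single turnover.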
0.0044

Fetch value of pre-steady-state target cleavage rate on MILI (PIWIL2) piRISC loaded with L1MC piRNA (26 nt) for UCCUGCUACAGCCUUGCAUAGUAUUUAGUUA .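 Further: 1 nM active piRISC with 0.1 nM target library at 33 °C single turnover.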
0.00822

Fetch value of pre-steady-state target cleavage rate on MILI (PIWIL2) piRISC loaded with L1MC piRNA (26 nt) for UCCUGCUACAGCAAGCAUAGUAUUUAGUUA .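 Further: 1 nM active piRISC with 0.1 nM target library at 33 °C single turnover.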
0.00524

Fetch value of pre-steady-state target cleavage rate on MILI (PIWIL2) piRISC loaded with L1MC piRNA (26 nt) for UCCUGGAUGUGCUUGCAUAGUAUUUUGUUA .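 Further: 1 nM active piRISC with 0.1 nM target library at 33 °C single turnover.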
0.00381

Fetch value of pre-steady-state target cleavage rate on MILI (PIWIL2) piRISC loaded with L1MC piRNA (26 nt) for UCCUGGAUGUGCUUGCAGAGUAUUUAGUUA .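 Further: 1 nM active piRISC with 0.1 nM target library at 33 °C single turnover.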
0.00711

Fetch value of pre-steady-state target cleavage rate on MILI (PIWIL2) piRISC loaded with L1MC piRNA (26 nt) for UCCUGGAUGACCAUGCAUAGUAUUUAGUUA .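 Further: 1 nM active piRISC with 0.1 nM target library at 33 °C single turnover.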
0.00375

Fetch value of pre-steady-state target cleavage rate on MILI (PIWIL2) piRISC loaded with L1MC piRNA (26 nt) for UCCUCCUACAGCUUGCAUUGUUUUUAGUUA .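 Further: 1 nM active piRISC with 0.1 nM target library at 33 °C single turnover.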
0.0039

Fetch value of pre-steady-state target cleavage rate on MILI (PIWIL2) piRISC loaded with L1MC piRNA (26 nt) for UCCUCCUUCAGCUUGCAUACUAUUUAGUUA .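 Further: 1 nM active piRISC with 0.1 nM target library at 33 °C single turnover.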
0.00296

Fetch value of pre-steady-state target cleavage rate on MILI (PIWIL2) piRISC loaded with L1MC piRNA (26 nt) for UCCUGCUACAGCUUGGUUAGUAUUUAGUAA .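 Further: 1 nM active piRISC with 0.1 nM target library at 33 °C single turnover.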
0.00357

Fetch value of pre-steady-state target cleavage rate on MILI (PIWIL2) piRISC loaded with L1MC piRNA (26 nt) for UCCUGGAUGUGCAUGGAUAGUAUUUAGUUA .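 Further: 1 nM active piRISC with 0.1 nM target library at 33 °C single turnover.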
0.0094

###

Tested on: EfPiwi piRISC loaded with L1MC piRNA (26 nt)
method: pre-steady-state target cleavage rate (min^-1); auxiliary factor: 500 nM Ephydatia muelleri Gtsf1; guide: L1MC piRNA 5'p-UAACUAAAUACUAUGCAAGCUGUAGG; MIWI and MILI are mouse PIWI proteins and EfPiwi is from a freshwater sponge; tags in brackets are library labels; higher = faster piRNA-guided slicing of the target
assay_readout: pre-steady-state target cleavage rate

Using known records, supply pre-steady-state target cleavage rate for UCCUGGAUGUGCUUGCACAGUAUUUAGUUA
0.00686

Using known records, supply pre-steady-state target cleavage rate for UCCUGGAUGUCUUUGCAUAGUAUUUAGUUA
0.00871

Using known records, supply pre-steady-state target cleavage rate for UCCUGGAACAGCUUGCAUAGUAUAUAGUAA
0.00251

Using known records, supply pre-steady-state target cleavage rate for UCCUGCUAGAGCUUGCAUAGUAUUUACAAA
0.00266

Using known records, supply pre-steady-state target cleavage rate for UCCUGCUACAGCUUGCUUAGUAAUUAGUUA
0.0139

Using known records, supply pre-steady-state target cleavage rate for UCCUGGUACAGCUUGCAUAGUAUUUAGUCA
0.00545

Using known records, supply pre-steady-state target cleavage rate for UCCUCCUACUGCUUGCAUAGUAUUUACUUA
0.00299

Using known records, supply pre-steady-state target cleavage rate for UCCUGGAUGUCGUUGCAUAGAUAAAUCAAA [g11:g18:cont:t1A]
< 0.0001

Using known records, supply pre-steady-state target cleavage rate for UCCUCCUACAGCUUGCAUAGAUUUUAGAAA
0.00312

Using known records, supply pre-steady-state target cleavage rate for UCCUCCUACAGCUUGCUUAGUAAUUAGUUA
0.0113

Using known records, supply pre-steady-state target cleavage rate for UCCUGGAUCAGCUUGCAUACUAUUUAGUUA
0.0114

Using known records, supply pre-steady-state target cleavage rate for UCCUGGAACACGAUGCAUAGUAUUUAGUUA
0.00377

Using known records, supply pre-steady-state target cleavage rate for UCCUGGAUGAGCUUGCAUAGUACUUAGUUA
0.0106

Using known records, supply pre-steady-state target cleavage rate for UCCUCCUACACUUGCAUAGUAUUUAGUUA
0.049

Using known records, supply pre-steady-state target cleavage rate for UCCUGGAACAGUUGCAUAGUAUUUAGUUA
0.0543

Using known records, supply pre-steady-state target cleavage rate for UCCUGGUACAGCUUGCAUAGUAUUUAGGUA
0.00463

Using known records, supply pre-steady-state target cleavage rate for UCCUCCUACAGCUUGCAUAGUAAAUAGUAA
0.00375

Using known records, supply pre-steady-state target cleavage rate for UCCUGGAUGUGCAUGCAUAGUAUUUAGAUA
0.00317

Using known records, supply pre-steady-state target cleavage rate for UCCUGCUACAGCUUGCAAACUAUUUAGUUA
0.00535

Using known records, supply pre-steady-state target cleavage rate for UCCUCCUAGAGCUUGCAUAGUAUUUACAAA
0.00252

Using known records, supply pre-steady-state target cleavage rate for UCCUGGAACAGCUUGCAAUAGUAUUUAGUUA
0.0183

Using known records, supply pre-steady-state target cleavage rate for UCCUCCUACAGCUUGCAAAGUAUUAAGUUA
0.00696

Using known records, supply pre-steady-state target cleavage rate for UCCUUCUACAGCUUGCAUAGUAUUUAGUUA
0.119

Using known records, supply pre-steady-state target cleavage rate for UCCUGGAACAGCUUGCAUAGUAUUGUAGUUA
0.00741

Using known records, supply pre-steady-state target cleavage rate for UCCUGCUACAGCUUGCUUAGUAUUUAGAAA
0.00409

Using known records, supply pre-steady-state target cleavage rate for UCCUCCUAGAGCUUGCAUAGUAUUUACUUA
0.00356

Using known records, supply pre-steady-state target cleavage rate for UCCUCCUACAGCUUGCAUAGUAUUUAGCUA
0.00335

Using known records, supply pre-steady-state target cleavage rate for UCCUGGAACAGCUUGAAUAGUAUUUAGUUA
0.0656

Using known records, supply pre-steady-state target cleavage rate for UCCUCUCUACAGCUUGCAUAGUAUUUAGUUA
0.0164

Using known records, supply pre-steady-state target cleavage rate for UCCUGGAUGAUCUUGCAUAGUAUUUAGUUA
0.0779

Using known records, supply pre-steady-state target cleavage rate for UCCUGGUACAGCUUCAUAGUAUUUAGUUA
0.0159

Using known records, supply pre-steady-state target cleavage rate for UCCUGCUACAGCUUGCAUAGUAUUUGAGUUA
0.0068

Using known records, supply pre-steady-state target cleavage rate for UCCUGGAUCAAGCUUGCAUAGUAUUUAGUUA
0.0542

Using known records, supply pre-steady-state target cleavage rate for UCCUGGUACAGCGUUGCAUAGUAUUUAGUUA
0.00749

Using known records, supply pre-steady-state target cleavage rate for UCCUGGAUGUCCUUGCAUAUUAUUUAGUUA
0.00283

Using known records, supply pre-steady-state target cleavage rate for UCCUGGUACAGCUUGCAUAGUAAUUAGUUA
0.00654

Using known records, supply pre-steady-state target cleavage rate for UCCUGGAUGAGCUAGCAUAGUAUUAAGUUA
0.00293

Using known records, supply pre-steady-state target cleavage rate for UCCUCGAUCAGCUUGCAUAGUAUUUAGUAA
0.00989

Using known records, supply pre-steady-state target cleavage rate for UCCUGCUACAGCUUGCAUAGUAUGUUAGUUA
0.00247

Using known records, supply pre-steady-state target cleavage rate for UCCUGGAACUGCUUGCAUAGUAUUUAGAAA
0.00485

Using known records, supply pre-steady-state target cleavage rate for UCCUGGAUGUCGUGUGCAUAGUAUUUAGUUA
0.0038

Using known records, supply pre-steady-state target cleavage rate for UCCUCCUACAGCUUGCAUAGUAUCUUAGUUA
0.0254

Using known records, supply pre-steady-state target cleavage rate for UCCUGGAACAGCUAUGCAUAGUAUUUAGUUA
0.0102

Using known records, supply pre-steady-state target cleavage rate for UCCUGGAUGUCGAACCAUAGAUAUUAGUUA
< 0.0001

Using known records, supply pre-steady-state target cleavage rate for UCCUGCUACAGCUUGCAUAGUAUUUUCAAA
0.00277

Using known records, supply pre-steady-state target cleavage rate for UCCUGGAUCAGCUUGACAUAGUAUUUAGUUA
0.014

Using known records, supply pre-steady-state target cleavage rate for UCCUGGAUGUCGAACGAUAGUAUUAUAGUUA
< 0.0001

Using known records, supply pre-steady-state target cleavage rate for UCCUCCUACAGCUUGCUUAGUAUUUACUUA
0.00381

Using known records, supply pre-steady-state target cleavage rate for UCCUCCUACAGCUUGCAUACUAUUUAGAAA
0.00366
